test system: SF-268 CNS; experiment: NCI tumour cell line growth inhibition, 48 h

| Compound | System name | Comparison symbol | TGI [µM] |
| --- | --- | --- | --- |
| O=C([Se]C1C=CCCC1)c1ccc(C(=O)[Se]C2C=CCCC2)s1 (centres undefined) | SF-268 CNS | = | 16.9 |
| COc1cc(/C=N/NC(=O)c2ccc3nc(-c4ccc(Cl)cc4)[nH]c3c2)cc(OC)c1OC | SF-268 CNS | = | 20.5 |
| COc1ccc(C(=O)/C=C/c2ccc(OCc3ccc(F)cc3)c(OC)c2)cc1OC | SF-268 CNS | > | 100 |
| Cn1cc(-c2cc(N)n3nc(-c4c[nH]c5ccccc45)cc3n2)c2cc(F)ccc21 | SF-268 CNS | = | 8.08 |

---

system: NCI-H23 lung; experiment: NCI tumour cell line growth inhibition, 48 h; in the data active = GI50 below about 0.43 µM; inactive = the rest
Classes used: active, inactive

| Compound | Label |
| --- | --- |
| Cn1cc(-c2cc(N)n3nc(-c4c[nH]c5ccccc45)cc3n2)c2cc(F)ccc21 | inactive |
| N/C(=N\c1nc2ccccc2s1)NC(=O)Nc1ccccc1[N+](=O)[O-] | active |
| O=C([Se]C1C=CCCC1)c1ccc(C(=O)[Se]C2C=CCCC2)s1 (centres undefined) | inactive |
| COc1cc(/C=C/C(=O)c2ccc(NC(=O)CN3C(=O)NC(C)(c4ccccc4)C3=O)cc2)cc(OC)c1OC (centres undefined) | inactive |

---

Each item that follows carries a reported TGI.
tested on: MDA-MB-468 breast; test: NCI tumour cell line growth inhibition, 48 h
Endpoint label: TGI (µM)

| Molecule | Endpoint label | Comparison symbol | Obs value |
| --- | --- | --- | --- |
| O=C1/C(=C/c2ccc(O)cc2)COc2ccc(-c3ccccc3)cc21 | TGI | = | 11.4 |
| COC(=O)CNC(=O)[C@@H](OC)[C@@H]1Cc2cc3cc(OC4CC(OC5CC(O)C(O)C(C)O5)C(O)C(C)O4)c(C)c(O)c3c(O)c2C(=O)[C@H]1OC1CC(OC2CC(OC3CC(C)(O)C(O)C(C)O3)C(O)C(C)O2)C(O)C(C)O1 (some centres undefined) | TGI | = | 1.31 |
| CC(=O)OCC1OC(n2ccc(=O)[nH]c2=O)C(OC(C)=O)C1OC(C)=O (centres undefined) | TGI | > | 100 |
| C[C@@H]1COCCN1c1cc(C2(S(C)(=N)=O)CC2)nc(-c2ccnc3[nH]ccc23)n1 (some centres undefined) | TGI | = | 25 |

---

tested on: HCT-15 colon; test: NCI tumour cell line growth inhibition, 48 h; in the data active means GI50 below about 0.43 µM; inactive means the rest
Classes used: active, inactive

| Molecule | Label |
| --- | --- |
| N/C(=N\c1nc2ccccc2s1)NC(=O)Nc1ccccc1[N+](=O)[O-] | active |
| COc1ccc(C(=O)/C=C/c2ccc(OCc3ccc(F)cc3)c(OC)c2)cc1OC | inactive |
| O=C([Se]C1C=CCCC1)c1ccc(C(=O)[Se]C2C=CCCC2)s1 (centres undefined) | inactive |
| Cn1cc(-c2cc(N)n3nc(-c4c[nH]c5ccccc45)cc3n2)c2cc(F)ccc21 | inactive |

---

test system: 786-0 renal; experiment: NCI tumour cell line growth inhibition, 48 h

| Compound | GI50 |
| --- | --- |
| COc1cc(/C=C/C(=O)c2ccc(NC(=O)CN3C(=O)NC(C)(c4ccccc4)C3=O)cc2)cc(OC)c1OC (centres undefined) | 8.43 µM |
| O=C([Se]C1C=CCCC1)c1ccc(C(=O)[Se]C2C=CCCC2)s1 (centres undefined) | 2.02 µM |
| COc1cc(/C=N/NC(=O)c2ccc3nc(-c4ccc(Cl)cc4)[nH]c3c2)cc(OC)c1OC | 4.88 µM |
| Cn1cc(-c2cc(N)n3nc(-c4c[nH]c5ccccc45)cc3n2)c2cc(F)ccc21 | 1.49 µM |

---

tested on: MDA-MB-468 breast; experiment: NCI tumour cell line growth inhibition, 48 h

| Smiles structure | GI50 |
| --- | --- |
| Fc1cccc(COc2ccc(Nc3ncnc4cc(-c5ccc[nH]5)sc34)cc2Cl)c1 | 44.6 nM |
| CN(C)c1ccc2cc(-c3ccccc3F)c(N)nc2c1 | 542 nM |
| Cn1ccnc1C(=O)/C=C/c1ccc(CC(=O)Nc2ccccc2)cc1 | 1710 nM |
| O=C1/C(=C/c2ccc(O)cc2)COc2ccc(-c3ccccc3)cc21 | 3320 nM |
| Fc1ccc2[nH]c3c(NCCCN4CCOCC4)ncnc3c2c1 | 20400 nM |
| COc1cc(/C=N/NC(=O)c2ccc3nc(-c4ccc(Cl)cc4)[nH]c3c2)cc(OC)c1OC | 3270 nM |
| CCCCN(Cc1ccc(F)cc1)c1ccc(CO)c(Cl)c1 | 167 nM |
| CC[C@H](CC#N)OC(=O)N[C@@H](C)c1cccc(NC(=O)Nc2ccc(-c3cnco3)c(OC)c2)c1 | 531 nM |
| N/C(=N\c1nc2ccccc2s1)NC(=O)Nc1ccccc1[N+](=O)[O-] | 228 nM |
| CN(CCOc1ccc(C#N)cc1)CCOc1ccc(C#N)cc1 | 27500 nM |
| ClCc1c(Cl)c(Cl)c(Cl)c(CCl)c1Cl | 1570 nM |
| C#CC[C@@H]1C[C@]2(C)[C@H]3CC=C4[C@H]5CC(C)(C)CC[C@]5(C(=O)NCCCCN)CC[C@@]4(C)[C@]3(C)CC[C@H]2C(C)(C)[C@H]1OC(C)=O | 1710 nM |

---

system: MDA-MB-468 breast; assay: NCI tumour cell line growth inhibition, 48 h
Classify by measured TGI: Condition met if it is equal to or exceeds 4 µM, Condition not met if it is smaller.

| Smiles structure | Label |
| --- | --- |
| CNC(=O)c1cc(N2CCc3cc(NC(=O)Nc4ccc(N5CCOCC5)c(C(F)(F)F)c4)ccc32)ccn1 | Condition met |
| OCc1ccc(-c2nn(Cc3ccccc3)c3ccccc23)o1 | Condition not met |
| Oc1ccc(CCCCCCc2ccc(O)cc2)cc1 | Condition met |
| Fc1cccc(COc2ccc(Nc3ncnc4cc(-c5ccc[nH]5)sc34)cc2Cl)c1 | Condition not met |
| Nc1cc(N)c(N)cc1N | Condition met |
| COc1ccc(C(=O)/C=C/c2ccc(OCc3ccc(F)cc3)c(OC)c2)cc1OC | Condition met |
| CN(C)C(=S)N=Nc1c(O)[nH]c2ccccc12 | Condition not met |
| CN(C)c1ccc(/C=C/C=C(/C#N)c2ccccc2)cc1 | Condition met |
| Fc1ccc2[nH]c3c(NCCCN4CCOCC4)ncnc3c2c1 | Condition met |

---

test system: OVCAR-3 ovarian; experiment: NCI tumour cell line growth inhibition, 48 h
Each item that follows carries a reported TGI.
Endpoint label: TGI (µM)

| Molecule | Endpoint label | Comparison symbol | Obs value |
| --- | --- | --- | --- |
| Cn1cc(-c2cc(N)n3nc(-c4c[nH]c5ccccc45)cc3n2)c2cc(F)ccc21 | TGI | = | 4.68 |
| COc1cc(/C=N/NC(=O)c2ccc3nc(-c4ccc(Cl)cc4)[nH]c3c2)cc(OC)c1OC | TGI | = | 4.88 |
| COc1ccc(C(=O)/C=C/c2ccc(OCc3ccc(F)cc3)c(OC)c2)cc1OC | TGI | > | 100 |
| COc1cc(/C=C/C(=O)c2ccc(NC(=O)CN3C(=O)NC(C)(c4ccccc4)C3=O)cc2)cc(OC)c1OC (centres undefined) | TGI | = | 21 |

---

Each item that follows carries a reported GI50.
system: UACC-62 melanoma; test: NCI tumour cell line growth inhibition, 48 h
Endpoint label: GI50

| Compound | Endpoint label | Obs value |
| --- | --- | --- |
| COc1ccc(C(=O)/C=C/c2ccc(OCc3ccc(F)cc3)c(OC)c2)cc1OC | GI50 | 4.41 µM |
| COc1cc(/C=N/NC(=O)c2ccc3nc(-c4ccc(Cl)cc4)[nH]c3c2)cc(OC)c1OC | GI50 | 1.24 µM |
| Cn1cc(-c2cc(N)n3nc(-c4c[nH]c5ccccc45)cc3n2)c2cc(F)ccc21 | GI50 | 1.71 µM |
| COc1cc(/C=C/C(=O)c2ccc(NC(=O)CN3C(=O)NC(C)(c4ccccc4)C3=O)cc2)cc(OC)c1OC (centres undefined) | GI50 | 11.7 µM |

---

Each item that follows carries a reported GI50.
system: OVCAR-4 ovarian; assay: NCI tumour cell line growth inhibition, 48 h
Endpoint label: GI50

| Smiles structure | Obs value |
| --- | --- |
| N/C(=N\c1nc2ccccc2s1)NC(=O)Nc1ccccc1[N+](=O)[O-] | 8.07 µM |
| COc1cc(/C=N/NC(=O)c2ccc3nc(-c4ccc(Cl)cc4)[nH]c3c2)cc(OC)c1OC | 2.35 µM |
| COc1ccc(C(=O)/C=C/c2ccc(OCc3ccc(F)cc3)c(OC)c2)cc1OC | 3.94 µM |
